Reference source: PubChem BioAssay

test system: Neuregulin-1 EGF-like domain; experiment: small molecules binding NRG1 EGF domain – biochemical, small-molecule microarray, 635 nm fluorescence, primary screen (AID 1081); settings: higher = more signal;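 also: binding of the protein to compounds printed on small-molecule microarray slides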
Observed Property: composite z-score

CC1CC/C=C\[C@H]2OC34C=CCN(Cn5nnc6ccccc65)C(=O)[C@H]3N(CCCO)C(=O)[C@@H]4C2C(=O)O1 (some centres undefined) = 1.57
COC(=O)c1nc2oc1CC[C@@H](CO)NC(=O)N(C)Cc1cn(nn1)C[C@H](Cc1ccccc1)NC2=O = 1.09
O=C1O[C@@H](c2ccccc2)[C@@H](c2ccccc2)N2[C@@H](c3ccc(O)cc3)[C@]3(C(=O)Nc4ccc(C#CCCO)cc43)[C@@H](C(=O)O)[C@H]12 = 1.07

Could you now consider this next compound?
INPUT: What value of composite z-score has been reported for the following compound? [N-]=[N+]=NCc1ccccc1C[C@]1(C(=O)NCc2ccccc2)COC(c2ccc(OCCCO)cc2)=N1
OUTPUT: 0.931

---

biological target: Dickkopf-related protein 1 (Homo sapiens); assay: small molecules binding DKK1 protein – biochemical, small-molecule microarray, 635 nm fluorescence scan, primary screen (AID 1106); conditions: higher = more signal;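 also: score merges emission near 667 nm with signal to noise over three replicate slides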
Observed Property: composite z-score
// print number alone

Take a look at these entries with their results.
C=CCC(OC(C)=O)[C@@H]1[C@@H](N(Cc2ccc(-c3ccccc3)cc2)C(=O)c2ccc(C)cc2)c2cc(OCCCO)ccc2N1C(=O)Cc1ccc(OC)cc1 (some centres undefined) = 0.22
CC1(C)C(=O)C(c2ccccc2)=C2CN3C(=O)N(CCc4ccccc4)C(=O)C3(Cc3ccccc3)C=C21 (centres undefined) = -1.03
CCN(CC)c1ccc(N2CC=CC34O[C@@H]5/C=C\CCC(C)OC(=O)C5[C@H]3C(=O)N(CCCCCCO)[C@@H]4C2=O)cc1 (some centres undefined) = -0.471
Cn1c2c(c3ccccc31)C(=O)C1NC2C=CC1(C)C(=O)OCc1ccccc1 (centres undefined) = -2.53
Cc1ccc(S[C@]2(C(=O)NCCCN(C)C)CC(=O)N(Cc3ccccc3)[C@@H]2c2ccc(CO)cc2)cc1 = -0.909

INPUT: What value of composite z-score has been reported for the following compound? CC(=O)NCCCC[C@@H]1NC(=O)[C@@H]2C[C@H](C(=O)NCCCCCC[N+](C)(C)C)[C@H](c3cccc(OCCO)c3)N2C1=O
OUTPUT: 1.45

INPUT: What value of composite z-score has been reported for the following compound? COc1ccc(C#Cc2ccc3c(c2)[C@]2(C(=O)N3)[C@H](C(=O)N3CCc4cc(OC)c(OC)cc4C3)[C@H]3C(=O)O[C@H](c4ccccc4)[C@H](c4ccccc4)N3[C@@H]2c2ccc(OCCO)cc2)cc1
OUTPUT: 0.671

INPUT: What value of composite z-score has been reported for the following compound? COc1ccc(CCNC(=O)[C@@]2(C)c3ccccc3C(=O)N(Cc3ccccc3)[C@H]2c2ccc(CO)cc2)cc1
OUTPUT: 0.548

INPUT: What value of composite z-score has been reported for the following compound? Cc1ccc(N2C(=O)c3ccccc3[C@](C)(C(=O)NCCN3CCOCC3)[C@@H]2c2ccc(CO)cc2)nc1
OUTPUT: -0.979

INPUT: What value of composite z-score has been reported for the following compound? O=C(CS)NCCCCCNC(=O)[C@H]1C[C@H]2C(=O)N[C@@H](Cc3ccccc3)C(=O)N2[C@H]1c1cccc(OCCO)c1
OUTPUT: 1.61

INPUT: What value of composite z-score has been reported for the following compound? [N-]=[N+]=NCc1ccccc1[C@H]1OC(c2ccc(OCCCO)cc2)=N[C@@]1(Cc1ccccc1)C(=O)NCC(O)CO (some centres undefined)
OUTPUT: -0.651

INPUT: What value of composite z-score has been reported for the following compound? CC(c1ccccc1)C(O)C1C=CC2C(=O)N(Cc3ccccc3)C(=O)C2N1n1cnnc1 (centres undefined)
OUTPUT: -0.174

INPUT: What value of composite z-score has been reported for the following compound? COC(=O)[C@@]1(Cc2ccccc2)[C@H]2c3cc(C(=O)N(C)C)n(Cc4cc(F)c(F)c(F)c4)c3C[C@H]2CN1C(=O)c1ccccc1
OUTPUT: -0.818

INPUT: What value of composite z-score has been reported for the following compound? COCCOC(=O)N1C(=O)[C@@]2(c3ccccc31)[C@H](C(=O)N1CCCCCCC1)[C@H]1C(=O)O[C@H](c3ccccc3)[C@H](c3ccccc3)N1[C@@H]2c1ccccc1OCCO
OUTPUT: 1.5
